testedTarget: T1, 重组人CD73蛋白 (human, UniProt P21589 27-547, limits assumed)
T1 construct: Coated at 3 ug/ml in the ELISA and used at 5 ug/ml in the enzyme assay; also called rhCD73
T1 sequence (looked up): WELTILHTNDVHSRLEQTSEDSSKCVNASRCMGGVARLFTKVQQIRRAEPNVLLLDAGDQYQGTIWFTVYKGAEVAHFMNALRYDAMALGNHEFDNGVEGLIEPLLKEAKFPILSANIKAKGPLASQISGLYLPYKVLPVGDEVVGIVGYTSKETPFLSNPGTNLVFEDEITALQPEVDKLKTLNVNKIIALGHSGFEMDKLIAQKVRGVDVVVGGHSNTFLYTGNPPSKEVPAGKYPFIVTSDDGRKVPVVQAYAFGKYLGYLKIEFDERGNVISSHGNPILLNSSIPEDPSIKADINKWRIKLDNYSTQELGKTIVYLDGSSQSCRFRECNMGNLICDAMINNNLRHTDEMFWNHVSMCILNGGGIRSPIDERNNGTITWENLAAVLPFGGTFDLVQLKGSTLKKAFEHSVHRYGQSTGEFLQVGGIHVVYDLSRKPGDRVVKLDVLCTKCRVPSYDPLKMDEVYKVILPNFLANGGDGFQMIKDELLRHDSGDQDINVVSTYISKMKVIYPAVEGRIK
methodNotes: ELISA, recombinant human CD73 coated at 3 ug/ml
endpoint: binding result

{"binder": "137-6 (antibody, IgG1, V domains shown, also called 人源化CD73抗体; CQ137人源化抗体; not shown: kappa constant region) VH: QVQLVQSGAEVKKPGSSVKVSCKASGYSFTGYYIHWVRQAPGQGLEWMGRINPYNGATTYNQNFKDRVTITVDKSTSTAYMELSSLRSEDTAVYYCARFHYGAPEYWGQGTLVTVSS VL: DIQMTQSPSSLSASVGDRVTITCKASQDINTYLTWYQQKPGKAPKTLIYRANILVDGVPSRFSGSGSGTDFTLTISSLQPEDFATYYCLQYAEFPLTFGGGTKVEIKR", "valueReported": "binds"}
{"binder": "137-9 (antibody, IgG1, V domains shown, also called 人源化CD73抗体; CQ137人源化抗体; not shown: kappa constant region) VH: QVQLVQSGAEVKKPGSSVKVSCKASGYSFTGYYIHWVRQAPGQGLEWMGRINPYNGATTYNQNFKDRVTITVDKSTSTAYMELSSLRSEDTAVYYCARFHYGAPDLWGQGTLVTVSS VL: DIQMTQSPSSLSASVGDRVTITCKASQDINTYLTWYQQKPGKAPKTLIYRANILVDGVPSRFSGSGSGTDFTLTISSLQPEDFATYYCLQYDAFPLTFGGGTKVEIKR", "valueReported": "binds"}
{"binder": "137-4 (antibody, IgG1, V domains shown, also called 人源化CD73抗体; CQ137人源化抗体; not shown: kappa constant region) VH: QVQLVQSGAEVKKPGSSVKVSCKASGYSFTGYYIHWVRQAPGQGLEWMGRINPYNGATTYNQNFKDRVTITVDKSTSTAYMELSSLRSEDTAVYYCARFHYGAVDYWGQGTLVTVSS VL: DIQMTQSPSSLSASVGDRVTITCKASQDINTYLTWYQQKPGKAPKTLIYRANILVDGVPSRFSGSGSGTDFTLTISSLQPEDFATYYCLQYEEFPLTFGGGTKVEIKR", "valueReported": "binds"}
